# EXPERIMENTAL_TARGET: Human recombinant Top1 (Homo sapiens, UniProt P11387)
# Construct: made in house
# Sequence (P11387 whole entry): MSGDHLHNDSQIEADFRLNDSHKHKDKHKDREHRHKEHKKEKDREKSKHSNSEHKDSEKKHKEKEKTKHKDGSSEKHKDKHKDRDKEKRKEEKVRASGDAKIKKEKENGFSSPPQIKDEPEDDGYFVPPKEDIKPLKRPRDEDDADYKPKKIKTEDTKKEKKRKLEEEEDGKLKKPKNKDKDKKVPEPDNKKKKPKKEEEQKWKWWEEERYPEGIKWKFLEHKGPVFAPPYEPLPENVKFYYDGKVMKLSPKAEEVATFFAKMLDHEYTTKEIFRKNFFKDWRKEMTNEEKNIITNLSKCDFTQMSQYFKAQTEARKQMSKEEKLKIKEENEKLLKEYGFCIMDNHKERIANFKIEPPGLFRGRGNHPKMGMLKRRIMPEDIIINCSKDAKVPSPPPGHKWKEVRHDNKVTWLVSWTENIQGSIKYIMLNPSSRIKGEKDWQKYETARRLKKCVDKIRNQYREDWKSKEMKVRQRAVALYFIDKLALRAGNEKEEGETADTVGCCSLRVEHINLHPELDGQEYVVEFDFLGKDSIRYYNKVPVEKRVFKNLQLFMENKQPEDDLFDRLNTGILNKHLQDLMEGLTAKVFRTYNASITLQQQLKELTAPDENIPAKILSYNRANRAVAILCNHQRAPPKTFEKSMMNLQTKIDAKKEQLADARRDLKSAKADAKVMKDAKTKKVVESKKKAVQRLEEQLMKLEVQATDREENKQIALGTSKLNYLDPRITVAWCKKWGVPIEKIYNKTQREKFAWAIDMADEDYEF
# PROCEDURE_DETAILS: Topoisomerase I-mediated DNA cleavage reactions
# Assay type: biochemical
# CONDITION_INFO: semiquantitative; tested at 0.1 μM, 1 μM, 10 μM, 100 μM; relative to 1 μM camptothecin
# Procedure: Topoisomerase I-Mediated DNA Cleavage Reactions. […] Biological Results.All of the target compounds were tested for induction of DNA damage in Top1-mediated DNA cleavage assays. The results of this assay are designated relative to the Top1 inhibitory activity of CPT and expressed in semi-quantitative fashion on the scale from 0, no detectable activity, to ++++, similar activity to that of compound 1 at a concentration of 1 μM. […]
Measured activity of the compounds to produce Top1-mediated DNA cleavage, listed per entry.
REPORTED_ENDPOINT: activity of the compounds to produce Top1-mediated DNA cleavage

LINE_NOTATION: COc1cc2c(OC)nc3c4ccccc4nc(OC)c3c2cc1OC
RECORDED_NUMBER: 0
//
LINE_NOTATION: COc1cc2c(=O)n(CCCO)c3c4ccccc4[nH]c(=O)c3c2cc1OC
RECORDED_NUMBER: 0
//
LINE_NOTATION: COc1cc2c(Cl)nc3c4ccccc4nc(Cl)c3c2cc1OC
RECORDED_NUMBER: 0
